Where these numbers come from: ChEMBL document CHEMBL3098122

TARGET DESC: UniProtKB P18031
PROTOCOL DETAILS: Partial reversible inhibition of human recombinant PTP1B expressed in Escherichia coli TB1 using p-nitrophenylphosphate as substrate assessed as residual activity at 25 times IC50 after 1 hr measured after 400 fold dilution
ASSAY ENDPOINT: Activity (%)

MOL	TARGET DESC	DISPLAY UNIT	Activity
O=C(O)c1ccc(CN2C(=O)/C(=C/c3cccc(OCCc4ccccc4)c3)S/C2=N\c2ccccc2)cc1	UniProtKB P18031	%	50
O=C(O)c1ccc(CN2C(=O)/C(=C/c3ccc(OCCc4ccccc4)cc3)S/C2=N\c2ccccc2)cc1	UniProtKB P18031	%	50
COc1ccc(/C=C2\S/C(=N\c3ccccc3)N(Cc3ccc(C(=O)O)cc3)C2=O)cc1OCc1ccccc1	UniProtKB P18031	%	50
O=C(O)c1ccc(CN2C(=O)/C(=C/c3ccc(OCc4ccccc4)c(F)c3)S/C2=N\c2ccccc2)cc1	UniProtKB P18031	%	50

###

Species on record: Homo sapiens
PROTOCOL DETAILS: Selectivity ratio of IC50 for human recombinant LMW-PTP IF2 to IC50 for human recombinant PTP1B
ASSAY ENDPOINT: Ratio IC50

MOL	Ratio IC50
COc1cc(/C=C2\S/C(=N\c3ccccc3)N(Cc3ccc(C(=O)O)cc3)C2=O)ccc1OCc1ccccc1	> 2
O=C(O)c1ccc(CN2C(=O)/C(=C/c3ccc(OCCc4ccccc4)cc3)S/C2=N\c2ccccc2)cc1	> 2
COc1ccc(/C=C2\S/C(=N\c3ccccc3)N(Cc3ccc(C(=O)O)cc3)C2=O)cc1OCCc1ccccc1	> 2

// next item, Ratio IC50 requested
Ask: Tell me the measured Ratio IC50 of COc1cc(/C=C2\S/C(=N\c3ccccc3)N(Cc3ccc(C(=O)O)cc3)C2=O)ccc1OCCc1ccccc1 , please.
Result: > 2

###

TARGET DESC: UniProtKB P18031
Sequence (P18031 whole entry): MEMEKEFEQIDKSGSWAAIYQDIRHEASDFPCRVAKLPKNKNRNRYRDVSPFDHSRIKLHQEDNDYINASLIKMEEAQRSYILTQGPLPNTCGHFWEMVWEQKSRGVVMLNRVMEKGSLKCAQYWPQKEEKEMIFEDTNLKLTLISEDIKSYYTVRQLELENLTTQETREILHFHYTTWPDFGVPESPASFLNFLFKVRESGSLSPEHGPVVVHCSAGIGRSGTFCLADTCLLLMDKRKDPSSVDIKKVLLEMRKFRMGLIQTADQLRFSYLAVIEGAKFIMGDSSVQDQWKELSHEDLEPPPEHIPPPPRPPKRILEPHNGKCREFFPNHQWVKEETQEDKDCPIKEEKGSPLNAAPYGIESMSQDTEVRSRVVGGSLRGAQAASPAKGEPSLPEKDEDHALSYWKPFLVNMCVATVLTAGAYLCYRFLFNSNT
PROTOCOL DETAILS: Competitive inhibition of human recombinant PTP1B expressed in Escherichia coli TB1 using p-nitrophenylphosphate as substrate by Double reciprocal plot analysis
ASSAY ENDPOINT: Ki (µM)
Note: unit µM is implicit; provide only the numeric part.

Ask: Fill in: Ki of COc1ccc(/C=C2\S/C(=N\c3ccccc3)N(Cc3ccc(C(=O)O)cc3)C2=O)cc1OCCc1ccccc1 is ___
Result: 1.5

###

TARGET DESC: Tyrosine-protein phosphatase non-receptor type 1 (Homo sapiens, UniProt P18031)
PROTOCOL DETAILS: Mixed type inhibition of human recombinant PTP1B expressed in Escherichia coli TB1 using p-nitrophenylphosphate as substrate by Double reciprocal plot analysis
pKi: −log10 of the molar value.
ASSAY ENDPOINT: pKi

MOL	TARGET DESC	pKi
COc1cc(/C=C2\S/C(=N\c3ccccc3)N(Cc3ccc(C(=O)O)cc3)C2=O)ccc1OCCc1ccccc1	Tyrosine-protein phosphatase non-receptor type 1 (Homo sapiens, UniProt P18031)	5.82

[A] O=C(O)c1ccc(CN2C(=O)S/C(=C\c3ccc(OCCc4ccccc4)cc3)C2=O)cc1
[B] O=C(O)c1ccc(CN2C(=O)/C(=C/c3ccc(OCCc4ccccc4)cc3)S/C2=N\c2ccccc2)cc1
Ask: Decide: A or B , by lowest recorded pKi. Identify your selection by its label.
Result: A

###

TARGET DESC: Tyrosine-protein phosphatase non-receptor type 1 (Homo sapiens, UniProt P18031)
Sequence (P18031 whole entry): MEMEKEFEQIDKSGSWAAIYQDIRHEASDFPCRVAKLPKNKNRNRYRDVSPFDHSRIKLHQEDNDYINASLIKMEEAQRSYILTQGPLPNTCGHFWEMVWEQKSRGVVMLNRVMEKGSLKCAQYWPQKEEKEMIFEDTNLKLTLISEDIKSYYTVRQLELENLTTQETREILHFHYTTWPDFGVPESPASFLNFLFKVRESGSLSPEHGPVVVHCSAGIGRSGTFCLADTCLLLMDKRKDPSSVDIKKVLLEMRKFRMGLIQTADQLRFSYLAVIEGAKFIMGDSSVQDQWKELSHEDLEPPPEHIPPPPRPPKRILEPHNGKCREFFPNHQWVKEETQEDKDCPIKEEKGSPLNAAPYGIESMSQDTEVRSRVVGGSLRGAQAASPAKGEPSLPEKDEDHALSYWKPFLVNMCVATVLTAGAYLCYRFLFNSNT
PROTOCOL DETAILS: Inhibition of human recombinant PTP1B expressed in Escherichia coli TB1 using p-nitrophenylphosphate as substrate
ASSAY ENDPOINT: IC50 (nM)

Some molecules with recorded IC50:
MOL	IC50 [nM]
COc1cc(/C=C2\SC(=O)N(Cc3ccc(C(=O)O)cc3)C2=O)ccc1OCCc1ccccc1	1100
O=C(O)c1ccc(CN2C(=O)/C(=C/c3ccc(OCc4ccccc4)c(F)c3)S/C2=N\c2ccccc2)cc1	2200
COc1ccc(/C=C2\SC(=O)N(Cc3ccc(C(=O)O)cc3)C2=O)cc1OCc1ccccc1	4000
COc1ccc(/C=C2\S/C(=N\c3ccccc3)N(Cc3ccc(C(=O)O)cc3)C2=O)cc1OCc1ccccc1	3900
COc1cc(/C=C2\S/C(=N\c3ccccc3)N(Cc3ccc(C(=O)O)cc3)C2=O)ccc1OCc1ccccc1	1600

[A] COc1ccc(/C=C2\S/C(=N\c3ccccc3)N(Cc3ccc(C(=O)O)cc3)C2=O)cc1OCCc1ccccc1
[B] O=C(O)c1ccc(CN2C(=O)S/C(=C\c3ccc(OCc4ccccc4)c(F)c3)C2=O)cc1
[C] O=C(O)c1ccc(CN2C(=O)/C(=C/c3cccc(OCCc4ccccc4)c3)S/C2=N\c2ccccc2)cc1
[D] O=C(O)c1ccc(CN2C(=O)S/C(=C\c3ccc(OCCc4ccccc4)cc3)C2=O)cc1
Ask: Arrange by IC50, high to low. In your reply, arrange the labels in the requested order.
Result: B, C, D, A
(B: 7500 nM, C: 4600 nM, D: 2600 nM, A: 1700 nM)

###

TARGET DESC: Low molecular weight phosphotyrosine protein phosphatase (Homo sapiens, UniProt P24666)
Sequence (P24666 whole entry): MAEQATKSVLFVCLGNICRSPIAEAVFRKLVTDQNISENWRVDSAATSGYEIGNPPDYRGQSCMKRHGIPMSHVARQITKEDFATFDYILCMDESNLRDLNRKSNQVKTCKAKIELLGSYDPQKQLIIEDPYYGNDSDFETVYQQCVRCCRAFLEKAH
PROTOCOL DETAILS: Inhibition of human recombinant LMW-PTP IF2 expressed in Escherichia coli TB1 using p-nitrophenylphosphate as substrate
pIC50: −log10 of the molar value.
ASSAY ENDPOINT: pIC50

MOL	pIC50
COc1ccc(/C=C2\SC(=O)N(Cc3ccc(C(=O)O)cc3)C2=O)cc1OCCc1ccccc1	< 4.30
O=C(O)c1ccc(CN2C(=O)S/C(=C\c3cccc(OCCc4ccccc4)c3)C2=O)cc1	< 4.30
O=C(O)c1ccc(CN2C(=O)S/C(=C\c3ccc(OCCc4ccccc4)cc3)C2=O)cc1	< 4.30
O=C(O)c1ccc(CN2C(=O)S/C(=C\c3ccc(OCc4ccccc4)c(F)c3)C2=O)cc1	< 4.30
COc1ccc(/C=C2\SC(=O)N(Cc3ccc(C(=O)O)cc3)C2=O)cc1OCc1ccccc1	< 4.30

Alright, here's another compound for you.
Ask: Looking for the measured pIC50 of COc1cc(/C=C2\S/C(=N\c3ccccc3)N(Cc3ccc(C(=O)O)cc3)C2=O)ccc1OCc1ccccc1 , can you help?
Result: 5.00

###

TARGET DESC: Tyrosine-protein phosphatase non-receptor type 1 (Homo sapiens)
Sequence (P18031 whole entry): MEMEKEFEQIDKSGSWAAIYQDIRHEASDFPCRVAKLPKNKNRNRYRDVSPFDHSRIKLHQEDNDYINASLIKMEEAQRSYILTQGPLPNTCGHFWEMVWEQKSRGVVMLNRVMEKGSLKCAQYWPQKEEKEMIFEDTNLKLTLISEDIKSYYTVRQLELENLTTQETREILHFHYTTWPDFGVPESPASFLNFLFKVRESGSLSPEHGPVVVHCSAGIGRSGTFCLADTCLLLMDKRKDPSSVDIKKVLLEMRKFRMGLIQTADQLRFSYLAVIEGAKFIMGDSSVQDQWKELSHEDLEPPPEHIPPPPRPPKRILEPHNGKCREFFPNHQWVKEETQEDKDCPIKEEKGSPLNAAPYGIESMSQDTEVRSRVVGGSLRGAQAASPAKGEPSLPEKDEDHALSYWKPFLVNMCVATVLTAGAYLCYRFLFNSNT
PROTOCOL DETAILS: Noncompetitive inhibition of human recombinant PTP1B expressed in Escherichia coli TB1 using p-nitrophenylphosphate as substrate by Double reciprocal plot analysis
ASSAY ENDPOINT: pKi
As a rule, pKi stands for the negative log10 of the concentration, concentration in M.

Ask: Field: pKi (Tyrosine-protein phosphatase non-receptor type 1 (Homo sapiens)). Entry: COc1cc(/C=C2\SC(=O)N(Cc3ccc(C(=O)O)cc3)C2=O)ccc1OCCc1ccccc1
Result: 5.85
